measured on: T1, Nrd1 CID I130K (S. cerevisiae, UniProt P53617 1-153, I130K)
T1 construct: the construct for anisotropy is made as described previously (Kubicek et al, 2012); also called CID(I130K)-His6; source: recombinant, produced and purified as described previously (Kubicek et al, 2012); plasmid with T7 promoter
T1 sequence (looked up): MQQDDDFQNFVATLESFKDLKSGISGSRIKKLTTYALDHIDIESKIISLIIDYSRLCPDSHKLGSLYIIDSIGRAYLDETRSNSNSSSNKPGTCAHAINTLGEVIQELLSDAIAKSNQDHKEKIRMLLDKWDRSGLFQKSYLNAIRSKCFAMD
protocol text: fluorescence polarisation; fluorescence anisotropy, equilibrium binding of Nrd1 CID variants to FAM-labelled NIM peptides; 10°C, 50 mM Na2HPO4, 100 mM NaCl, pH 8; 1:1 model with non-specific binding (DynaFit)
conditions used: both partners purified
Ends that are not written are not given here. FAM = 5,6-carboxyfluorescein

>  <binder>
{FAM}-DDDEDDYTPSIS (peptide, UniProt Q00416 2052-2063, looked up, Sen1, S. cerevisiae, fragment harbouring aa 2,052-2,063; source: synthetic peptide) [Sen1 NIM peptide (Sen1 aa 2,052-2,063)]

>  <Kd>
36.7 µM

$$$$
